- Tested on: LY8 cells
- assay_method_text: cell viability assay, LY8 cells
- Type: cell-based
observable: pIC50
Reminder that pIC50 is minus the log10 of a molar concentration.

{"molecule": "CONC(=O)[C@H]1[C@@H](O)[C@@]2(O)c3c(OC)cc(OC)cc3O[C@@]2(c2ccc(O)cc2)[C@@H]1c1ccccc1", "study_system": "LY8 cells", "test_value": 7.41}

API: the following record is the query input.
Any idea what pIC50 was measured for COc1cc(OC)c2c(c1)OC1(c3ccc(O)cc3)C(c3ccccc3)C(C(N)=O)C(O)C21O (racemic) [Racemic mixture of Compounds 8 and 9] ? 5.54
